Each item that follows carries a reported residual activity.
# EXPERIMENTAL TARGET: IKBKE (human) (UniProt Q14164)
# Sequence (Q14164 whole entry, looked up): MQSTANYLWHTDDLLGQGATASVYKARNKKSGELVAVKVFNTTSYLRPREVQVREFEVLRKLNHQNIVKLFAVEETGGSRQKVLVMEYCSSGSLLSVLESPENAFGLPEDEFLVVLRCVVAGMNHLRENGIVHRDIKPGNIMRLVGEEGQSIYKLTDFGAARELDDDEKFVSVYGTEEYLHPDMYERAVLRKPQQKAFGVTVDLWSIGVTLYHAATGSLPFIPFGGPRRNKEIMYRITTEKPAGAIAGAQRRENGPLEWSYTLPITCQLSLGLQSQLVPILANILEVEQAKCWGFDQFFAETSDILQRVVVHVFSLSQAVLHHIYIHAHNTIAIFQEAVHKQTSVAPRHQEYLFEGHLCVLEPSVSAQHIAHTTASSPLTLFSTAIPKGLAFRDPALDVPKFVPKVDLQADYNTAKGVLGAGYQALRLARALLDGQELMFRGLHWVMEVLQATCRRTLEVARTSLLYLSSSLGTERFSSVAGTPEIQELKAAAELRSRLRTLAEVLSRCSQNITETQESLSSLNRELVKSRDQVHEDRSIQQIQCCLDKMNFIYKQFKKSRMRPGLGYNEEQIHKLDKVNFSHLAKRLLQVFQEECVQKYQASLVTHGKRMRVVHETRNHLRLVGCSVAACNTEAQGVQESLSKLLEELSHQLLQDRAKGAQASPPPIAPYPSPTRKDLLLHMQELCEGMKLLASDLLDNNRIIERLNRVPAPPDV
# PROTOCOL DETAILS: radiometric filter-binding kinase assay, Kinase HotSpot
# TEST CONTEXT: compound 0.5 µM; ATP 10 µM
EXPERIMENTAL READOUT: residual activity (%)

INSERT INTO results (molecule, experimental_readout, reading_unit, meas_value) VALUES
  ('CC(=O)O/N=C1\C(=C2\C(=O)Nc3cc(Br)ccc32)Nc2ccccc21', 'residual activity', '%', 81.4),
  ('COc1ccc(OC)c2c(=S)c3ccccc3[nH]c12', 'residual activity', '%', 104),
  ('COc1ccc(CNC(=O)Nc2ncc([N+](=O)[O-])s2)cc1', 'residual activity', '%', 99.8),
  ('O=C(CCCc1ccc(-c2ccccc2F)cc1)Nc1ccc(O)cc1', 'residual activity', '%', 98.2),
  ('CC(C)c1nn(-c2c(Cl)cccc2Cl)c2nc(Cc3ccc(OCCO)cc3)nc(O)c12', 'residual activity', '%', 95.6),
  ('COc1cc2ncc(-c3ccccc3)nc2cc1OC', 'residual activity', '%', 98.9),
  ('CN(C)C[C@H]1CCn2c(c(C3=C(c4cn(C)c5ccccc45)C(=O)NC3=O)c3ccccc32)C1', 'residual activity', '%', 78.8),
  ('Cn1sc(=O)n(Cc2ccccc2)c1=O', 'residual activity', '%', 96.4),
  ('Cc1nc2cc3nc(-c4cccs4)cnc3cc2n1C', 'residual activity', '%', 89.8),
  ('O=C1NC(=O)C(c2cn(CCCO)c3ncccc23)=C1c1cnccn1', 'residual activity', '%', 90),
  ('CCn1cnc2c(Nc3cccc(Cl)c3)nc(N[C@@H]3CCCC[C@@H]3N)nc21', 'residual activity', '%', 99.5),
  ('Oc1ccc(Nc2nc(-c3ccc(Cl)cc3)cs2)cc1', 'residual activity', '%', 95.9),
  ('Nc1nccc(-c2c(-c3ccc(F)cc3)ncn2C2CCNCC2)n1', 'residual activity', '%', 99.5),
  ('O=C1Cc2c([nH]c3ccc(Br)cc23)-c2ccccc2N1', 'residual activity', '%', 89.8),
  ('Cn1nc2c3c(cccc31)C(=O)c1ccccc1-2', 'residual activity', '%', 92.3),
  ('O=C1Nc2ccccc2/C1=C1\Nc2ccccc2\C1=N/O', 'residual activity', '%', 75.1),
  ('Nc1nnc2[nH]c3ccccc3nc1-2', 'residual activity', '%', 99.4),
  ('O=C1NC(=O)/C(=C\c2ccc3nccnc3c2)S1', 'residual activity', '%', 99.5),
  ('CCN(CC)CCCCN1c2ccccc2Oc2ccc(Cl)cc21', 'residual activity', '%', 102),
  ('O=C(Nc1cccc(Nc2cc(Nc3cccc(C(F)(F)F)c3)ncn2)c1)C1CC1', 'residual activity', '%', 97.7),
  ('Cn1cnc2cc3c(Nc4cccc(Br)c4)ncnc3cc21', 'residual activity', '%', 98.7),
  ('O=C(O)/C=C/c1cc(Br)c(Br)c(Br)c1Br', 'residual activity', '%', 96.8),
  ('CN([C@@H](Cc1ccc(OS(=O)(=O)c2cccc3cnccc23)cc1)C(=O)N1CCN(c2ccccc2)CC1)S(=O)(=O)c1cccc2cnccc12', 'residual activity', '%', 92.6),
  ('O=C1NC(=O)C(c2c[nH]c3ccccc23)=C1c1c[nH]c2ccccc12', 'residual activity', '%', 103),
  ('O=C1Nc2ccccc2/C1=C1/Nc2ccccc2/C1=N\OCCC(O)CO (configuration not stated)', 'residual activity', '%', 45.7),
  ('CC(C)[C@H](CO)Nc1nc(Nc2cc(N)cc(Cl)c2)c2ncn(C(C)C)c2n1', 'residual activity', '%', 88.4),
  ('COc1cc2ncnc(N3CCN(C(=O)Nc4ccc(Oc5ccccc5)cc4)CC3)c2cc1OC', 'residual activity', '%', 98.9);
